target: UniProt:Q16288; experiment: HotSpot kinase assay: Trk C; type: biochemical; conditions: Trk C
Sequence (Q16288 32-839): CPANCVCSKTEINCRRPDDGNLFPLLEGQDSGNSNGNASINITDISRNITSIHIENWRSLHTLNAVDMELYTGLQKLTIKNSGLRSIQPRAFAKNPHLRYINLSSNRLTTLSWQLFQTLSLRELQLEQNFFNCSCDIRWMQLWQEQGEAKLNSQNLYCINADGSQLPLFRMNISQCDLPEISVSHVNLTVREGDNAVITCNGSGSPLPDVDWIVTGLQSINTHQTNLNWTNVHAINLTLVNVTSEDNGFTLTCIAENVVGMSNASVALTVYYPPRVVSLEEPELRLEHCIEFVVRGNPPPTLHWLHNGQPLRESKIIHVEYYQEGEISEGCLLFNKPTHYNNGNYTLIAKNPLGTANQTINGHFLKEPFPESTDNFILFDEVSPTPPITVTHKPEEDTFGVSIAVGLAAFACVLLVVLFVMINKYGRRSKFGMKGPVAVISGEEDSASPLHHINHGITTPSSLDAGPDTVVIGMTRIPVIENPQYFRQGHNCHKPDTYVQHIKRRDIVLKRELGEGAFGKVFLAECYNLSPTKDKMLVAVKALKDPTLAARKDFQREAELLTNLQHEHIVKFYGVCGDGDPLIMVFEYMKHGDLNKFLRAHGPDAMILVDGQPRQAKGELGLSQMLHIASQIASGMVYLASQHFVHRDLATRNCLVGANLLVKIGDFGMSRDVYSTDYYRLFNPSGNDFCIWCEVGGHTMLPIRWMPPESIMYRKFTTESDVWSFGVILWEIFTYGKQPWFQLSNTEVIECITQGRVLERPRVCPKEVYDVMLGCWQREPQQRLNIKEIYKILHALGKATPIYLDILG
assay_readout: IC50 (nM)
Write down the numeric answer in nM and omit the unit.

Look up and state reported IC50 for CC(C)c1cc(Nc2nc(N3CCCC3C(=O)N(C)C)nc3c2CCC3)n[nH]1 (single isomer, unassigned) [Compound 20b]
55.1

====

molecular target: IR (Homo sapiens); construct: purchased Millipore 14-803; experiment: In vitro IR enzymatic assay (ADP-Glo kinase assay); format: biochemical; settings: activated IR, 30 nM, average
Sequence (P06213 28-1382): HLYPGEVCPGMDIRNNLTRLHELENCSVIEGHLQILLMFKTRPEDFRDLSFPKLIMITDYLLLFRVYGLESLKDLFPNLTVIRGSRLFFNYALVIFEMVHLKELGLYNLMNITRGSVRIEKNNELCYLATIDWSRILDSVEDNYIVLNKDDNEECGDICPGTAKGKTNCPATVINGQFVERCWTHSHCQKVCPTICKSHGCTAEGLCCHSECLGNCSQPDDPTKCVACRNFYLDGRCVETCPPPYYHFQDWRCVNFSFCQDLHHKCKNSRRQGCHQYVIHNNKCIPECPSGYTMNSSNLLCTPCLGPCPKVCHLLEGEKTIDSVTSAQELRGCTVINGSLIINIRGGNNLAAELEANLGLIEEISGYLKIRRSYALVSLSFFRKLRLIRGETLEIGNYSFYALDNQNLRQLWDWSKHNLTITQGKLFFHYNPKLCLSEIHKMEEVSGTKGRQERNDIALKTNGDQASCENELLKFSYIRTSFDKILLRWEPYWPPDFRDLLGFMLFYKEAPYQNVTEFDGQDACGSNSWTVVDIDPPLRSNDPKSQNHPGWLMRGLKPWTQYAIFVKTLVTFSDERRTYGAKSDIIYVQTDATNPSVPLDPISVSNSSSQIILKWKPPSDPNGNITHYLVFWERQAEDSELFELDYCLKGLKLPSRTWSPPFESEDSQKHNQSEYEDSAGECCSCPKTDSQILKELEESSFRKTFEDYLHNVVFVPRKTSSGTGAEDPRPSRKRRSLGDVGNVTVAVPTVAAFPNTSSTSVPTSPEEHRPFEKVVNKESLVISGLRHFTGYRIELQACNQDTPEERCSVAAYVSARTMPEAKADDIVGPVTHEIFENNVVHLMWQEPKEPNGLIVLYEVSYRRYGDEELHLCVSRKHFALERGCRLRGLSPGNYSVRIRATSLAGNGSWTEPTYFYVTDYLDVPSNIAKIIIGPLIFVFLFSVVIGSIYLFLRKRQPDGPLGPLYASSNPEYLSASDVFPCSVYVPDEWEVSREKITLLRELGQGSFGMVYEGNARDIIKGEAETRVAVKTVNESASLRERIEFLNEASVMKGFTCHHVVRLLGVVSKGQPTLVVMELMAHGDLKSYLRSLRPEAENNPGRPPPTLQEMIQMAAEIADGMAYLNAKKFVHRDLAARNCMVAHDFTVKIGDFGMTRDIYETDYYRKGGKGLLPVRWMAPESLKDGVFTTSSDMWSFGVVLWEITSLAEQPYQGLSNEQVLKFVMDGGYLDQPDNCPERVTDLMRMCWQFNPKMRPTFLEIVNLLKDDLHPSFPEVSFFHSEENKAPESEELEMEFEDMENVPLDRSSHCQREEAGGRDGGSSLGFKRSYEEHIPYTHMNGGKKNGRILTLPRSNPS
assay_readout: % Inh @ 30 nM Avg (%)

[[record]]
compound = "CNC(=O)C1CCCN1c1nc2c(c(Nc3cc(C(C)C)[nH]n3)n1)CCC2 (single isomer, unassigned) [Compound 19a]"
observed_measurement = "−9"


[A] CC(C)c1cc(Nc2nc(N3CCCC3C(N)=O)nc3c2CCC3)n[nH]1 (single isomer, unassigned) [Compound 18a]
[B] CC(C)c1cc(Nc2nc(N3CCCC3C(N)=O)nc3c2CCC3)n[nH]1 (single isomer, unassigned) [Compound 18b]
[C] O=C(Nc1ccc(F)nc1)C1CCCN1c1nc2c(c(Nc3cc(C4CCCC4)[nH]n3)n1)CCC2 (single isomer, unassigned) [Compound 4a]
[D] O=C(Nc1ccc(F)nc1)C1CCCN1c1nc2c(c(Nc3cc(C4CCCC4)[nH]n3)n1)CCCC2 (single isomer, unassigned) [Compound 15a]
[E] O=C(Nc1ccc(F)nc1)[C@H]1[C@@H](O)CCN1c1nc2c(c(Nc3cc(C4CC4)[nH]n3)n1)CCC2 (single isomer, unassigned) [Compound 11a]
// ascending sort on recorded % Inh @ 30 nM Avg Would you mind listing the labels in the order asked for?
E, C, D, A, B
(E: −13%, C: −8%, D: 1%, A: 3%, B: 32%)
